Data credit: PubChem BioAssay (NCATS)

Experiment: Quantitative High-Throughput drug screen in 47 multiple myeloma cell lines against the NCATS MIPE library collection: PCM6_Riken cell viability assay (AID 1919870); also: nearly all actives have a fitted effect of over 30% in size; also: potency is read from the fitted curve at half-maximal effect
Settings: CellTiter-Glo ATP, 48 h; series mostly up to 45.8 µM
Text: PI: Beverly A. Mock Ph.D. Laboratory of Cancer Biology and Genetics, Center for Cancer Research, National Cancer Institute, National Institute of Health, Bethesda, Maryland […] 5; Detector; 425V; Luminescence; Viewlux PerkinElmer. […] 1. […] Briefly, the corresponding myeloma cell lines were screened in 1,536-well plates with 500 cells, 5-uL per well for inhibition of cell viability (assessed by measuring ATP levels with CellTiterGlo). […]
Records with an inconclusive call do not appear. Calls of active or inactive are those of the source. Calls follow the shape of the dose curve; as a rule, active = well fitted cell-killing curve with a large enough effect; inconclusive = small, poorly fitted or top-dose-only effect, or effect the other way; inactive = no such curve, though single readings can be large or run the other way.
Measurement Name: Potency

These solved cases illustrate the format of a correct answer.
{"Compound": "CCN1CCCC1CNC(=O)c1cc(S(=O)(=O)CC)c(N)cc1OC (stereo not drawn)", "Potency": "inactive"}
{"Compound": "OCCN1CCN(CCCN2c3ccccc3Sc3ccc(C(F)(F)F)cc32)CC1", "Potency": "23.5 µM (active)"}
{"Compound": "Cc1cnc(C(=O)NCCc2ccc(S(=O)(=O)NC(=O)NC3CCCCC3)cc2)cn1", "Potency": "16.6 µM (active)"}
{"Compound": "O=c1[nH]cc(F)c(=O)[nH]1", "Potency": "10.5 µM (active)"}
{"Compound": "CC[N+](CC)(CC)CCOc1cccc(OCC[N+](CC)(CC)CC)c1OCC[N+](CC)(CC)CC", "Potency": "inactive"}

stdin: Item `CC(=O)OCC(CCn1cnc2cnc(N)nc21)COC(C)=O` has what recorded Potency?
stdout: inactive

stdin: Look up Potency: `CN1CCC(=C2c3ccccc3CC(=O)c3sccc32)CC1`
stdout: 14.8 µM (active)

stdin: Can you look up the measured Potency of `Cn1cnc2c1c(=O)[nH]c(=O)n2C` for me?
stdout: 16.6 µM (active)

---

Experiment: Quantitative High-Throughput drug screen in 47 multiple myeloma cell lines against the NCATS MIPE library collection: Delta47_JCRB cell viability assay (AID 1918925; also: nearly all actives have a fitted effect of over 45% in size)
Conditions: Delta47 myeloma viability, CellTiter-Glo ATP, 48 h; series mostly up to 45.8 µM
Inconclusive results are not listed. The source made the active and inactive calls. The call rests on the fitted dose curve; in most records, active means well fitted cell-killing curve with a large enough effect; inconclusive means small, poorly fitted or top-dose-only effect, or effect the other way; inactive means no such curve, though single readings can be large or run the other way.
Assign a class; possible classes are active, inactive

{"Molecule": "COc1nc(C)nc(Cl)c1NC1=NCCN1", "Class Label": "active"}
{"Molecule": "CCc1cccc2c3c([nH]c12)C(CC)(CC(=O)O)OCC3 (stereo not given)", "Class Label": "inactive"}
{"Molecule": "NC(=O)NO", "Class Label": "active"}
{"Molecule": "Cc1ccc(-c2cc(C(F)(F)F)nn2-c2ccc(S(N)(=O)=O)cc2)cc1", "Class Label": "active"}
{"Molecule": "Cc1cc(C(C)(C)C)cc(C)c1CC1=NCCN1", "Class Label": "inactive"}
{"Molecule": "CC[C@@]1(O)C(=O)OCc2c1cc1n(c2=O)Cc2cc3c(CN(C)C)c(O)ccc3nc2-1", "Class Label": "active"}
{"Molecule": "NC(=O)OCC(COC(N)=O)c1ccccc1", "Class Label": "inactive"}
{"Molecule": "CS(=O)(=O)CCNCc1ccc(-c2ccc3ncnc(Nc4ccc(OCc5cccc(F)c5)c(Cl)c4)c3c2)o1", "Class Label": "active"}
{"Molecule": "NCCS(=O)(=O)O", "Class Label": "inactive"}

Now examine the next entry.
stdin: Can you look up the reported call for `CC#C[C@]1(O)CC[C@H]2[C@@H]3CCC4=CC(=O)CCC4=C3[C@@H](c3ccc(N(C)C)cc3)C[C@@]21C` for me?
stdout: active

---

Biological target: Cytochrome P450 2D6 (Homo sapiens)
Experiment: Cytochrome P450 family 2 subfamily D member 6 (CYP2D6) small molecule antagonists: luciferase biochemical (cell-free) qHTS assay (AID 1645840); also: nearly all actives have a fitted effect of over 55% in size
Conditions: P450-Glo CYP2D6 enzyme, luciferin luminescence, 1 h; series mostly up to 57.4 µM
Inconclusive results are not listed. Calls of active or inactive are those of the source. Calls follow the shape of the dose curve; as a rule, active = well fitted inhibition curve with a large enough effect in the repeat runs; inconclusive = weak or mixed curves; inactive = flat fitted curve, though single readings scatter.
Valid outcomes are listed here; reply with one: 1.0 = active, 0.0 = inactive

Use the examples below as a reference point.
{"Molecule": "CC1COc2c(N3CCN(C)CC3)c(F)cc3c(=O)c(C(=O)O)cn1c23 (stereo not drawn)", "Class Label": 0.0}
{"Molecule": "COc1cc2nc(N3CCN(C(=O)C4COc5ccccc5O4)CC3)nc(N)c2cc1OC (stereo not drawn)", "Class Label": 0.0}
{"Molecule": "CCOC(=O)c1ncn2c1CN(C)C(=O)c1cc(F)ccc1-2", "Class Label": 0.0}
{"Molecule": "COc1cc2c(c(OC)c1OC)-c1ccc(OC)c(=O)cc1[C@@H](NC(C)=O)CC2", "Class Label": 0.0}
{"Molecule": "CC(C)NCC(O)COc1ccc(CCOCC2CC2)cc1 (stereo not drawn)", "Class Label": 0.0}

Moving on to another molecule below.
stdin: Query: recorded result category for `Clc1ccc2c(c1)C(N1CCNCC1)=Nc1ccccc1O2` in this test
stdout: 1.0

---

System: Tov-21-G
Assay: Primary qHTS to identify gynecologic anti-cancer compounds using libraries of approved drugs and bioactive compounds (AID 1345084); also: % is scaled to controls: 0 for no effect and ±100 for the full control effect; nearly all actives have a fitted effect of over 55% in size
Details: Gynecologic cancer cell panel viability, ATPlite luminescence, 48 h; series mostly up to 57.5 µM
From the text: National Center for Advancing Translational Sciences [NCATS] Assay Overview: Chemotherapeutic drug responses vary from cancer to cancer and from patient to patient. […] ATPlite is a luminescence based assay reliant on the conversion of a luciferase substrate to light in the presence of ATP. As a cytotoxic compound will suppress growth and decrease the number of cells, the concentration of ATP will decrease, and less light signal will be detected in the well. […]
Results filed as inconclusive are left out. The source made the active and inactive calls. Calls follow the shape of the dose curve; as a rule, active = well fitted cell-killing curve with a large enough effect; inconclusive = small, poorly fitted or top-dose-only effect, or effect the other way; inactive = flat fitted curve, though single readings scatter.
Measurement Name: outcome

Some entries whose results are on file:
{"Compound String": "CC(C)(C)C(=O)Oc1ccc(S(=O)(=O)Nc2ccccc2C(=O)NCC(=O)O)cc1", "outcome": "inactive"}
{"Compound String": "CN(C)C(=N)N=C(N)N", "outcome": "inactive"}
{"Compound String": "NC(=O)NO", "outcome": "inactive"}
{"Compound String": "OCCN1CCN(CCCN2c3ccccc3Sc3ccc(C(F)(F)F)cc32)CC1", "outcome": "inactive"}

Now examine the next entry.
stdin: Data request, read-out outcome, for `CN(C)c1nc(N(C)C)nc(N(C)C)n1`
stdout: inactive

---

Tested on: PAD
Experiment: qHTS profiling for inhibitors of Plasmodium falciparum proliferation (AID 504749); also: nearly all actives have a fitted effect of over 60% in size
Settings: P. falciparum in erythrocytes, SYBR Green DNA, 72 h; series mostly up to 28.7 µM
Results filed as inconclusive are left out. Active and inactive are the calls of the source. The call rests on the fitted dose curve; in most records, active means well fitted inhibition curve with a large enough effect; inconclusive means small, poorly fitted or top-dose-only effect; inactive means flat fitted curve, though single readings scatter.
Permitted responses: t (active), f (inactive)

Known results for compounds:
{"Compound": "CC[N+](CC)(CC)CCOc1cccc(OCC[N+](CC)(CC)CC)c1OCC[N+](CC)(CC)CC", "Class Label": "f"}
{"Compound": "CN1CCC(=C2c3ccccc3C=Cc3ccccc32)CC1", "Class Label": "f"}
{"Compound": "COc1ccccc1OCC(O)CN1CCN(CC(=O)Nc2c(C)cccc2C)CC1 (configuration not stated)", "Class Label": "f"}

Read the next record carefully.
stdin: Could you please tell me the result logged for `Clc1ccccc1C(c1ccccc1)(c1ccccc1)n1ccnc1` in this assay?
stdout: t

---

Tested on: CRL-7250
Test: Cytotoxic Profiling of Annotated Libraries Using Quantitative High-Throughput Screening (AID 1296008); also: % is scaled to controls: 0 for no effect and ±100 for the full control effect; nearly all actives have a fitted effect of over 60% in size
Conditions: Five cell lines viability, CellTiter-Glo ATP luminescence, 48-72 h; hits give low values
Description: Cell-based phenotypic screening is a commonly used approach to discover biological pathways, novel drug targets, chemical probes and high-quality hit-to-lead molecules. […] A pintool (Kalypsys) was used to transfer 23 nL of compound solution to the 1536-well assay plates. […] Plates were left at room temperature for 10 min before imaging the ATP-coupled luminescence using a ViewLux microplate imager (PerkinElmer, Waltham, MA).
Records with an inconclusive call do not appear.
Listing of entries alongside the reported max response.
# number only, unit % dropped from output

{"Compound": "C[C@H]1c2cccc(O)c2C(O)=C2C(=O)[C@]3(O)C(O)=C(C(N)=O)C(=O)[C@@H](N(C)C)[C@@H]3[C@@H](O)[C@@H]21", "Reading": -2.19}
{"Compound": "CC(C)(Oc1ccc(C2CC2(Cl)Cl)cc1)C(=O)O (centres undefined)", "Reading": -2.5}
{"Compound": "Cc1cnc(C(=O)NCCc2ccc(S(=O)(=O)NC(=O)NC3CCCCC3)cc2)cn1", "Reading": 0.493}
{"Compound": "CC(C)NCC(O)c1ccc(O)c(O)c1 (centres undefined)", "Reading": 0.851}
{"Compound": "Cn1ccc2cc3c(cc21)CCN3C(=O)Nc1cccnc1", "Reading": -6.32}

stdin: Entry COc1ccccc1N1CCN(CC(O)COc2cccc3ccccc23)CC1 (centres undefined) : reported max response = ?
stdout: 4.67

stdin: Name the reported max response value associated with the compound `O=c1c(-c2ccc(O)cc2)coc2cc(O)cc(O)c12`
stdout: 4.48

stdin: Quick check: max response of CC1COc2c(N3CCN(C)CC3)c(F)cc3c(=O)c(C(=O)O)cn1c23 (centres undefined) ?
stdout: 1.02

stdin: Look at this compound and give its reported max response. CC(C)NCC(O)COc1ccc(CCOCC2CC2)cc1 (centres undefined)
stdout: -5.76

stdin: For the compound shown here, CCc1cccc2c3c([nH]c12)C(CC)(CC(=O)O)OCC3 (centres undefined) , give the reported max response.
stdout: -0.931

stdin: So what does the record say about max response for `NCCCCCC(=O)O` ?
stdout: -1.72

stdin: Form field: reported max response of CCC1(C)CC(=O)NC1=O (centres undefined)
stdout: 0.182

stdin: Can you look up the measured max response of `CN(C)CCC=C1c2ccccc2C=Cc2ccccc21` for me?
stdout: -6.55

stdin: State the recorded max response for this entry: COc1ccc(C2CNC(=O)C2)cc1OC1CCCC1 (centres undefined)
stdout: -1.68
